# targetOrSystem: BRD4 BD2 (Homo sapiens, UniProt O60885, Y97A)
# Construct: BRD4 (1-477) (Y97A) and (Y390A); made in house; host or cells: E. coli (pET15b vector)
# testDescription: BRD4 BD2 mutant TR-FRET competition assay
# Assay type: binding
# assayContext: read-out: pIC50 in the BRD4 BD2 assay (converted)
Where a name gives a salt, the structure may show the parent alone.
measuredParameter: IC50

CNC(=O)c1cc(C(=O)NCCOC2CCNCC2)cn(Cc2ccccc2)c1=O [Example 89, hydrochloride]; 0.1 to 1 µM
CNC(=O)c1cc(C(=O)NCCC2CCCCN2)cn(Cc2ccccc2)c1=O (centres unmarked) [Example 40, hydrochloride]; 0.1 to 1 µM
CNC(=O)c1cc(C(=O)NCCC2CCCOC2)cn(Cc2ccccc2)c1=O (centres unmarked); 0.1 to 1 µM
CNC(=O)c1cc(C(=O)N[C@H]2[C@@H]3CN(C(C)=O)C[C@@H]32)cn(Cc2cccc3[nH]ccc23)c1=O; ≤ 0.1 µM
CNC(=O)c1cc(C(=O)NCC2CCS(=O)(=O)C2)cn(Cc2ccccc2)c1=O (centres unmarked); 1 to 100 µM
CNC(=O)c1cc(C(=O)NCCCC2(O)CCNCC2)cn(Cc2ccccc2)c1=O; ≤ 0.1 µM
CCN1CCC(CCCNC(=O)c2cc(C(=O)NC)c(=O)n(Cc3ccccc3)c2)CC1; ≤ 0.1 µM
CNC(=O)c1cc(C(=O)NCCCC2CCNCC2)cn(Cc2ccc(F)c(C)c2)c1=O; ≤ 0.1 µM
CNC(=O)c1cc(C(=O)NCCC2CCNCC2)cn(Cc2cccc(C)c2F)c1=O; 0.1 to 1 µM
CNC(=O)c1cc(C(=O)NCCCN2CCCCC2)cn(Cc2ccccc2)c1=O [Example 45, hydrochloride]; 0.1 to 1 µM

# ---- query compound ----
Consider CNC(=O)c1cc(C(=O)NCCCC2CCCN(C)C2)cn(Cc2ccccc2)c1=O (centres unmarked) . Its measured IC50 is ≤ 0.1 µM

###

# targetOrSystem: BRD4 BD2 (Homo sapiens, UniProt O60885, Y97A)
# Construct: BRD4 (1-477) (Y97A) and (Y390A); made in house; host or cells: E. coli (pET15b vector)
# testDescription: BRD4 BD2 mutant TR-FRET competition assay
# Assay type: binding
# assayContext: read-out: pIC50 in the BRD4 BD2 assay (converted)
measuredParameter: IC50

Here is how some compounds turned out for IC50.
CNC(=O)c1cc(C(=O)NCCCC2CCN(CC(F)F)CC2)cn(Cc2ccccc2)c1=O; ≤ 100 nM
CNC(=O)c1cc(C(=O)NCCCC2CCNCC2)cn(Cc2cccc(C)c2F)c1=O; ≤ 100 nM
CCNC(=O)c1cc(C(=O)NCCC[C@]2(F)CCCNC2)cn(Cc2ccccc2)c1=O; ≤ 100 nM
CNC(=O)c1cc(C(=O)NC2CCCS(=O)(=O)C2)cn(Cc2ccccc2)c1=O (centres unmarked); 1000 to 100000 nM
CNC(=O)c1cc(C(=O)N[C@H]2[C@@H]3CN(C(=O)OC(C)(C)C)C[C@@H]32)cn(Cc2cccc3[nH]ccc23)c1=O; ≤ 100 nM
CNC(=O)c1cc(C(=O)NCCCN2CCOCC2)cn(Cc2ccccc2)c1=O; 100 to 1000 nM

Consider CCNC(=O)c1cc(C(=O)NCCCC2CCNCC2)cn(Cc2ccccc2)c1=O . Its measured IC50 is 100 to 1000 nM

###

# targetOrSystem: BRD4 BD2 (Homo sapiens, UniProt O60885, Y97A)
# Construct: BRD4 (1-477) (Y97A) and (Y390A); made in house; host or cells: E. coli (pET15b vector)
# testDescription: BRD4 BD2 mutant TR-FRET competition assay
# Assay type: binding
# assayContext: read-out: pIC50 in the BRD4 BD2 assay (converted)
Counter-ions that a name gives are not always drawn.
measuredParameter: IC50

Here is how some compounds turned out for IC50.
CNC(=O)c1cc(C(=O)NCCCC2CCN(CCO)CC2)cn(Cc2ccccc2)c1=O; ≤ 100 nM
CNC(=O)c1cc(C(=O)NC2CNC2)cn(Cc2ccccc2)c1=O; 100 to 1000 nM
CCNC(=O)c1cc(C(=O)NCCC[C@@H]2CNCCO2)cn(Cc2ccccc2)c1=O; ≤ 100 nM

Consider CNC(=O)c1cc(C(=O)NC[C@@H]2CCCOC2)cn(Cc2ccccc2)c1=O . Its measured IC50 is 100 to 1000 nM

Consider CNC(=O)c1cc(C(=O)N[C@H]2[C@@H]3CN(C(=O)OC(C)(C)C)C[C@@H]32)cn(Cc2ccccc2)c1=O . Its measured IC50 is ≤ 100 nM

Consider CNC(=O)c1cc(C(=O)NCCC2CCNCC2)cn([C@H](C)c2ccccc2)c1=O . Its measured IC50 is ≤ 100 nM

Consider CNC(=O)c1cc(C(=O)NCCCC2CCN(C(C)=O)CC2)cn(Cc2ccccc2)c1=O . Its measured IC50 is 100 to 1000 nM

Consider CNC(=O)c1cc(C(=O)NCCCN2CCS(=O)(=O)CC2)cn(Cc2ccccc2)c1=O . Its measured IC50 is 100 to 1000 nM

Consider CNC(=O)c1cc(C(=O)NCCC2CCCN(C(=O)OC(C)(C)C)C2)cn(Cc2ccccc2)c1=O (stereo not drawn) . Its measured IC50 is 1000 to 100000 nM

Consider CNC(=O)c1cc(C(=O)NCCC2CNCCO2)cn(Cc2ccccc2)c1=O (stereo not drawn) [Example 66, hydrochloride] . Its measured IC50 is 100 to 1000 nM

Consider CNC(=O)c1cc(C(=O)NCCCC2CCNCC2)cn(Cc2cccc(C)c2)c1=O . Its measured IC50 is ≤ 100 nM

Consider CNC(=O)c1cc(C(=O)N[C@H]2[C@@H]3CN(CCN)C[C@@H]32)cn(Cc2cccc3[nH]ccc23)c1=O . Its measured IC50 is ≤ 100 nM

Consider CNC(=O)c1cc(C(=O)N[C@H]2[C@@H]3CN(CCNC(=O)OC(C)(C)C)C[C@@H]32)cn(Cc2cccc3[nH]ccc23)c1=O . Its measured IC50 is ≤ 100 nM

Consider CNC(=O)c1cc(C(=O)N[C@H]2[C@@H]3COC[C@@H]32)cn(Cc2cccc(OC)c2)c1=O . Its measured IC50 is ≤ 100 nM

Consider CNC(=O)c1cc(C(=O)NC2CCCOC2)cn(Cc2ccccc2)c1=O (stereo not drawn) . Its measured IC50 is 100 to 1000 nM

###

# targetOrSystem: BRD4 BD2 (Homo sapiens, UniProt O60885, Y97A)
# Construct: BRD4 (1-477) (Y97A) and (Y390A); made in house; host or cells: E. coli (pET15b vector)
# testDescription: BRD4 BD2 mutant TR-FRET competition assay
# Type: binding
# assayContext: read-out: pIC50 in the BRD4 BD2 assay (converted)
measuredParameter: IC50

Here is how some compounds turned out for IC50.
CNC(=O)c1cc(C(=O)NCCC2CCN(C)CC2)cn(Cc2ccccc2)c1=O; ≤ 0.1 µM
CNC(=O)c1cc(C(=O)NCCC2CCN(C)C2)cn(Cc2ccccc2)c1=O (stereo not shown); 0.1 to 1 µM
CNC(=O)c1cc(C(=O)NCCC2CN(C(C)=O)CCO2)cn(Cc2ccccc2)c1=O (stereo not shown); 0.1 to 1 µM

Consider CNC(=O)c1cc(C(=O)NCCC2CCNCC2)cn(Cc2cccc(C)c2)c1=O . Its measured IC50 is ≤ 0.1 µM

###

# targetOrSystem: BRD4 BD2 (Homo sapiens, UniProt O60885, Y97A)
# Construct: BRD4 (1-477) (Y97A) and (Y390A); made in house; host or cells: E. coli (pET15b vector)
# testDescription: BRD4 BD2 mutant TR-FRET competition assay
# Type: binding
# assayContext: read-out: pIC50 in the BRD4 BD2 assay (converted)
Overview of reported IC50 across a group of compounds:

Consider CNC(=O)c1cc(C(=O)NCCC2CCNCC2)cn(Cc2cccc3[nH]ccc23)c1=O [Example 56] . Its measured IC50 is ≤ 100 nM

Consider CNC(=O)c1cc(C(=O)NC2CC3OCCCC23)cn(Cc2ccccc2)c1=O (stereo not drawn) [Example 35] . Its measured IC50 is 1000 to 100000 nM

Consider CNC(=O)c1cc(C(=O)NCCOC2CCCNC2)cn(Cc2ccccc2)c1=O (stereo not drawn) [Example 68] . Its measured IC50 is 100 to 1000 nM

Consider CNC(=O)c1cc(C(=O)NCCCC2CCNCC2)cn(Cc2cccc3[nH]ccc23)c1=O [Example 30] . Its measured IC50 is ≤ 100 nM

Consider CNC(=O)c1cc(C(=O)NCCC2CCOC2)cn(Cc2ccccc2)c1=O (stereo not drawn) [Example 9] . Its measured IC50 is 100 to 1000 nM

Consider CCNC(=O)c1cc(C(=O)NCC[C@@H]2CNCCO2)cn(Cc2ccccc2)c1=O [Example 83] . Its measured IC50 is 100 to 1000 nM

The measured values listed here are drawn from patent US10370356B2.
